Catalogue of TGI values
test system: EKVX NSCLC; assay: NCI tumour cell line growth inhibition, 48 h
experimentalEndpoint: TGI

{"molecule": "C/C(Cc1ccc(Cl)cc1)=C(/c1ccc(Cl)cc1)c1ccc(OCCN(C)C)cc1", "experimentalEndpoint": "TGI", "measurement": "9.22 µM"}
{"molecule": "C=CCN(C)CN(C)c1nc(N(C)C)nc(N(C)C)n1", "experimentalEndpoint": "TGI", "measurement": "> 100 µM"}
{"molecule": "N#CC1(C=O)c2ccccc2C=CN1C(=O)c1ccccc1 (stereo not drawn)", "experimentalEndpoint": "TGI", "measurement": "> 100 µM"}
{"molecule": "N#CC(Cc1ccccc1Br)N(CCC1=CCCCC1)C(c1ccccc1)c1ccccc1 (stereo not drawn)", "experimentalEndpoint": "TGI", "measurement": "> 100 µM"}
{"molecule": "O=C(c1ccc(Br)cc1)n1c2ccc(Br)cc2c2nc3ccccc3nc21", "experimentalEndpoint": "TGI", "measurement": "> 100 µM"}
{"molecule": "CN(CCCNC(=O)c1nn(-c2ccc(Cl)cc2Cl)c2c1ccc1ccccc12)CCCNC(=O)c1nn(-c2ccc(Cl)cc2Cl)c2c1ccc1ccccc12", "experimentalEndpoint": "TGI", "measurement": "3.29 µM"}
{"molecule": "CCS(=O)(=O)CCn1cnc2c1c(=O)n(C)c(=O)n2C", "experimentalEndpoint": "TGI", "measurement": "> 100 µM"}
{"molecule": "N=C(N)SCc1cccc2c(=O)cc(-c3ccccc3)oc12", "experimentalEndpoint": "TGI", "measurement": "37.9 µM"}
{"molecule": "O=C([O-])c1ccc(C(=O)[O-])cc1.O=C([O-])c1ccc(C(=O)[O-])cc1.[Mo+2].[Mo+2]", "experimentalEndpoint": "TGI", "measurement": "> 100 µM"}
{"molecule": "COC(=O)[C@@]12OC[C@]34C([C@@H](O)C1O)[C@@]1(C)CC(=O)C(OC(=O)/C=C(/c5ccccc5)C(F)(F)F)=C(C)C1C[C@H]3OC(=O)[C@H](O)[C@H]42 (stereo partly drawn)", "experimentalEndpoint": "TGI", "measurement": "> 50 µM"}
{"molecule": "N#CCCN(CCN(C(=O)Nc1ccccc1)c1ccccc1)C(=O)Nc1ccccc1", "experimentalEndpoint": "TGI", "measurement": "> 100 µM"}
{"molecule": "CC(C)C(/C=C/c1ccc(Br)cc1)=N\\NC(N)=O", "experimentalEndpoint": "TGI", "measurement": "> 100 µM"}
{"molecule": "COc1ccc(C(=O)c2cc3c(N)c(C(=O)Nc4cccc(Cl)c4C)sc3nc2C)cc1", "experimentalEndpoint": "TGI", "measurement": "> 25 µM"}
{"molecule": "C=CCNC1=C2C[C@@H](C)C[C@@H](OC)[C@H](OC(=O)CN)[C@H](C)/C=C(\\C)[C@@H](OC(N)=O)[C@H](OC)/C=C\\C=C(/C)C(=O)NC(=CC1=O)C2=O", "experimentalEndpoint": "TGI", "measurement": "21.7 µM"}
{"molecule": "Nc1nc(N)c2nc(CNc3ccc(C(=O)NC(CCCNC(=O)c4ccccc4C(=O)O)C(=O)O)cc3)cnc2n1 (stereo not drawn)", "experimentalEndpoint": "TGI", "measurement": "> 100 µM"}
{"molecule": "CCC(C(=O)[O-])C(=O)[O-].CCC(C(=O)[O-])C(=O)[O-].N.N.NCCCCCCN.[Pt+4].[Pt+4]", "experimentalEndpoint": "TGI", "measurement": "33.3 µM"}
{"molecule": "COc1cc(N(CCC#N)CCC#N)ccc1/C(N=Nc1ccccc1)=N/NC(=O)c1cc(Br)ccc1O", "experimentalEndpoint": "TGI", "measurement": "69.2 µM"}
{"molecule": "Cn1c(=S)c2[nH]c(SCCN3CCCC3)nc2n(C)c1=O", "experimentalEndpoint": "TGI", "measurement": "> 100 µM"}
{"molecule": "Cc1ccc(S(=O)(=O)Cc2nc(-c3ccc(C(=O)NCc4cccnc4)cc3)oc2C)cc1", "experimentalEndpoint": "TGI", "measurement": "> 100 µM"}
{"molecule": "COc1cccc(C2C3=C(COC3=O)Oc3cc4c(cc32)OCO4)c1 (stereo not drawn)", "experimentalEndpoint": "TGI", "measurement": "> 58 µM"}
{"molecule": "O=C(c1ccccc1)c1nc2ccc(C(F)(F)F)cc2[n+]([O-])c1C(F)(F)F", "experimentalEndpoint": "TGI", "measurement": "> 100 µM"}
{"molecule": "COC(=O)[C@@H]1C[C@H]([Se]c2ccccc2)CN1C(=O)OCc1ccccc1", "experimentalEndpoint": "TGI", "measurement": "> 100 µM"}
{"molecule": "COCCOCC(=O)N(CCn1ccc(NC(c2ccccc2)(c2ccccc2)c2ccccc2)nc1=O)CCn1cnc2nc(N)[nH]c(=O)c21", "experimentalEndpoint": "TGI", "measurement": "> 100 µM"}
{"molecule": "C=C1CN(Cc2ccccc2)[C@@H]2CCCCC[C@H](C#N)[C@H]12", "experimentalEndpoint": "TGI", "measurement": "> 100 µM"}
{"molecule": "CN(CCCl)c1ccc(/C=C/C2=[N+](C)c3ccccc3C2(C)C)cc1", "experimentalEndpoint": "TGI", "measurement": "14.9 µM"}
{"molecule": "CN(C)c1ccc(/C=N\\N2C(=O)c3ccccc3C2=O)cc1", "experimentalEndpoint": "TGI", "measurement": "> 100 µM"}
{"molecule": "NC(=O)/C=C/NC(=O)/C=N\\O", "experimentalEndpoint": "TGI", "measurement": "> 100 µM"}
{"molecule": "CCCSC1=NC2C(N(CC)C(=O)N2CC)N1/N=C/C=C/c1ccccc1[N+](=O)[O-] (stereo not drawn)", "experimentalEndpoint": "TGI", "measurement": "> 100 µM"}
{"molecule": "O=C(CCN1CCOCC1)Nc1ccc2sc3ccccc3c(=O)c2n1", "experimentalEndpoint": "TGI", "measurement": "> 100 µM"}
{"molecule": "CC1OC(OC2C(O)COC(OC3C(C)OC(OC4C(OC(=O)[C@]56CCC(C)(C)C[C@@H]5C5=CCC7[C@@]8(C)C[C@H](O)[C@H](OC9OC(CO)C(O)C(OC%10OC(CO)C(O)C(O)C%10O)C9O)[C@@](C)(CO)[C@@H]8CC[C@@]7(C)[C@]5(C)CC6)OCC(O)C4O)C(O)C3O)C2O)C(O)C(O)C1O (stereo partly drawn)", "experimentalEndpoint": "TGI", "measurement": "26.1 µM"}
{"molecule": "COc1cc(-c2cc(=O)c3cc(C)c(C)c(C(=O)O)c3o2)cc(OC)c1OC", "experimentalEndpoint": "TGI", "measurement": "> 100 µM"}
{"molecule": "O=c1cc(-c2ccccc2)oc2cc(OCCSCCCCCCCCCCSCCOc3ccc4c(=O)cc(-c5ccccc5)oc4c3)ccc12", "experimentalEndpoint": "TGI", "measurement": "> 100 µM"}
{"molecule": "NNc1[nH]c(=S)[nH]c1C(N)=O", "experimentalEndpoint": "TGI", "measurement": "> 100 µM"}
{"molecule": "O=C(O)c1oc(C(=O)O)c(C(=O)O)c1C(=O)O", "experimentalEndpoint": "TGI", "measurement": "> 100 µM"}
{"molecule": "Cc1cc(C)nc(SC2=C(Nc3cccc(Cl)c3C)C(=O)N(Cc3ccccc3)C2=O)n1", "experimentalEndpoint": "TGI", "measurement": "> 160 µM"}
{"molecule": "CC#CCCN(CC#N)Cc1ccccc1", "experimentalEndpoint": "TGI", "measurement": "> 100 µM"}
{"molecule": "CCCCn1sc(=O)n(Cc2ccc(CNC(=O)OCc3ccc4c(Br)cc(Br)c(O)c4n3)cc2)c1=O", "experimentalEndpoint": "TGI", "measurement": "> 100 µM"}
{"molecule": "Cc1nc(N)sc1C(=O)Nc1cc(C(=O)NCCCN(C)C)n(C)c1", "experimentalEndpoint": "TGI", "measurement": "> 100 µM"}
